- Protocol Notes: Stability assay: residual activity after incubation with 1 mM inhibitor, measured by pNA assay
- Type: physicochemical
- Set-up: key: fraction of activity at 0 h incubation (0.80 = 80%)
- Condition Context: incubation time 18.6 hours; 1 mM Cu2+; 25° C., pH 7, 0.1% K-sorbate; relative to 0 hours
I'd appreciate it if you could supply Residual Enzyme Activity values for the items below.
Answers are plain numbers.

Would you please look over these solved cases?
Molecule	Residual Enzyme Activity
Brachysporiella protease: protease from Brachysporiella gayana CGMCC 0865, amino acids 1-186 of SEQ ID NO: 14 (protein, listed as Brachysporiella gayana) MELTSLIAALAVILPIAYGVPMDATTNLSPKVLAAMKRDLGLDAREATARVTFERRAGDVIEELRSSLGDSFAGAWVTDGKVINIGVTDQALVSKVKEAGAEPMVMKNSLGKLQEAKKKLDQIIKEKPKTLSTSGKPGIATYYVDIETNKLIITALSTSITQAEDLAKEVGLSESEFEVRKTEKMP	1.073
Protease 18: protease from Nocardiopsis dassonvillei subsp. dassonvillei DSM 43235, amino acids 1-188 of SEQ ID NO: 12 (protein, Nocardiopsis dassonvillei subspecies dassonvillei) APAPVPQTPVADDSAASMTEALKRDLDLTSAEAEELLSAQEAAIETDAEATEAAGEAYGGSLFDTETLELTVLVTDASAVEAVEATGAQATVVSHGTEGLTEVVEDLNGAEVPESVLGWYPDVESDTVVVEVLEGSDADVAALLADAGVDSSSVRVEEAEEAPQVYADIIGGLAYYMGGRCSVGFAAT	1.008

Kindly review the next molecule as well.
Consider the molecule shown here: Metarhizium protease: known protease derived from Metarhizium anisopliae, amino acids 1-188 of SEQ ID NO: 4 (protein, listed as Metarhizium anisopliae) MELTKFLALLAVILPVAYGAPTQAASLHPQILEAMKRDLGLNAEQATVRVAREIHATDVIEQLRSSVAFAGAWIDADVLYIGITDQALADEVTAAGATPIVMTNSLSKLEKAKEDLDKIFIGRANTLETSSDTSSGIASYFVDVAANKLVIEALADSHGHAEQLAAQVGLTSEFEVRTVETMPTTMAT What is its recorded Residual Enzyme Activity?
0.939
